target: T1, human ApoC3 (huApoC3), native protein purified from human serum (human, UniProt P02656 21-99)
T1 construct: Athens Research and Technology; randomly biotinylated in some assays; also called Apolipoprotein C3
T1 sequence (P02656 21-99): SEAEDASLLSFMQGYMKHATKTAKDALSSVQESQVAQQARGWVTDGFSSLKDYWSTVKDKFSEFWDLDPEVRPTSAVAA
test: SPR Biacore, huApoC3 on chip, scFv-Fc as analyte
Procedure: This example describes characterization of anti-ApoC3 antibodies regarding their affinity to ApoC3 under neutral conditions using an SPR-based assay using a Biacore 3000 instrument (Biacore AB). Native huApoC3 protein was immobilized on a CM5 chip. […] The resulting sensorgrams were analyzed using the BIAevaluation 4.1 software using Langmuir 1:1 binding model to derive binding kinetics. […]
# Lookup of reported Ka keyed by entry
Just the number please, in M⁻¹, no unit attached.

Solved entries (count: 3):
binder | units_label | reported_value
8F4 scFv-Fc (Fc fusion, scFv-Fc format) VH: QLQLVESGGGLVQPGGSLRLSCAASGFAFSSYSMYWVRQAPGKGLERVAAIKTDGGSTNYADSVKGRFTVSRDNAKNTLYLQMNSLKSEDTAVYYCVIQGYGTWGQGTQVTVSS VL: DLVLTQIPGSLSVVPGESASISCKASQSLVHSDGKTYLYWLLQKPGQSPQRLIYQVSNRGSGVPDRFTGSGSGTDFTLKISGVEAEDAGVYYCAQATYYGHSFGSGTRLEIK | M⁻¹ | 1.72e+09
7A9 scFv-Fc (Fc fusion, scFv-Fc format) VH: EVQVQESGPGLVKPSQTLSLTCTVSGASITNRRYAWTWIRQPPGKGLEWMGVIVYDGNTHVSPSLRSRTSISRDTSKNQFSLQLSSLTPEDTAVYYCARVLLLRDPLSLDYWGQGTQVTVSS VL: SSALTQPPSMSGTLGKTLTISCAGTSSDIGAYNFVSWYQQLPGTAPKLLIYDIDKRASGIPDRFSGSKSGNTASLSISGLQSEDEADYYCAAYGSRDNVVFGGGTHLTVL | M⁻¹ | 3.87e+09
10B6 scFv-Fc (Fc fusion, scFv-Fc format) VH: EVQLVESGGGLVQPGGSLRLSCAASGFTFSSYAMRWVRQAPGKGLEWISSINIDGGSTRYTDSVQGRFTVSRDNAKNTLYLQMNNLKPEDTGIYYCTIQGYIYWGQGTQVTVSS VL: ATMLTQSPGSLSIVPGESASISCKASQSLVHSNGVIYFYWLLQKPGQSPQRLIYQVSNRDSGVPDRFTGSGSGTDFTLKISGVKAEDAGVYYCAQGTYYPHSFGSGTRLQIK | M⁻¹ | 2.58e+09

Please look up its Ka: 5A7 scFv-Fc (Fc fusion, scFv-Fc format) VH: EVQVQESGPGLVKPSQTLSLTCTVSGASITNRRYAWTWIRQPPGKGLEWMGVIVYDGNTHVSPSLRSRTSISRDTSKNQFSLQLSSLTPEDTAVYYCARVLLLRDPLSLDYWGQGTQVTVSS VL: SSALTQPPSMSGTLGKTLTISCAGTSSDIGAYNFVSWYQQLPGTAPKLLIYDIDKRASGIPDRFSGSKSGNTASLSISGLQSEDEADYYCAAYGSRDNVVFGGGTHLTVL
2.08e+09
